TARGET_UNDER_TEST: Kinesin-like protein KIF18A (Homo sapiens)
Sequence (Q8NI77 whole entry, the tested form may be a part): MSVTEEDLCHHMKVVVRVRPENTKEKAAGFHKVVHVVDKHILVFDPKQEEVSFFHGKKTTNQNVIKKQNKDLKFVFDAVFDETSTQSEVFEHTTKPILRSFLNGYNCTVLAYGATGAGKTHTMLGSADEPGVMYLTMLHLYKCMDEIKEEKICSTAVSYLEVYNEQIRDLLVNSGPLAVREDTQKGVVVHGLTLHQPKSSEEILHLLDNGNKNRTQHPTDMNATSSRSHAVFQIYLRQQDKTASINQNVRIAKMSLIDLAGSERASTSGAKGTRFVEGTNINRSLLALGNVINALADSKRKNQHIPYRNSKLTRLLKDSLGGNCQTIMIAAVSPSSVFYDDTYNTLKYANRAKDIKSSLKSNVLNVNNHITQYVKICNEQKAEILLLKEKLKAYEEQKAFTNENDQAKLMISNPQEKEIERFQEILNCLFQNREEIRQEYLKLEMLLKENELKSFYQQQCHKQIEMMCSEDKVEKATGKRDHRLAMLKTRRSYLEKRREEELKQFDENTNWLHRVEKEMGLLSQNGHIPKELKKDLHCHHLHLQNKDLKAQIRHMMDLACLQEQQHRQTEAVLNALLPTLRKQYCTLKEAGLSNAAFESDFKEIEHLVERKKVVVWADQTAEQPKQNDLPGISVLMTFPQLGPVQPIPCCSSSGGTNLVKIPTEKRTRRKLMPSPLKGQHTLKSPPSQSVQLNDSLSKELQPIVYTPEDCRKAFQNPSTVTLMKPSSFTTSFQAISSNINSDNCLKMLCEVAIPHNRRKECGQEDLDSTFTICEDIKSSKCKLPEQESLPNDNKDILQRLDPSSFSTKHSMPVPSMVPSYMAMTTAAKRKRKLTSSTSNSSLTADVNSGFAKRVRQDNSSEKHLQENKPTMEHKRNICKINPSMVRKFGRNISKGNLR
PROTOCOL_TEXT: Inhibition of recombinant His-tagged human KIF18A (1 to 467 residues) expressed in Trichoplusia ni insect cells assessed as inhibition of microtubule-stimulated ATPase activity preincubated for 30 mins followed by ATP addition and further incubated for 15 mins by ADP-Glo reagent based assay
Design: species or system Insect cell
OBSERVED_PROPERTY: IC50 (nM)
Numbers only, in nM.

Recorded IC50, per entry:
LINE_NOTATION | OBSERVED_PROPERTY | REPORTED_VALUE
CC(C)(C)NS(=O)(=O)c1cccc(NC(=O)c2ccc(NC3(CO)CC3)cc2N2CCC3(CC2)CC3)n1 | IC50 | 166
CC(C)(C)NS(=O)(=O)c1cccc(NC(=O)c2cccnc2N2CCC3(CC2)CC3)c1 | IC50 | 320

Would you mind listing IC50 for each of the following compounds?
1. O=C(Nc1cccc(S(=O)(=O)C2CCCC2)n1)c1ccc(NCCO)cc1N1CCC2(CC1)CC2
2. CC1(C)CCN(c2ncccc2C(=O)Nc2cccc(S(=O)(=O)C3CCCC3)c2)CC1
3. CC(C)(C)NS(=O)(=O)c1cccc(NC(=O)c2ccc(NC(C)(C)CO)cc2N2CCC3(CC2)CC3)n1
4. CC(C)(CO)S(=O)(=O)c1cccc(NC(=O)c2cccnc2N2CCC3(CC2)CC3)c1
5. CC(C)(C)NS(=O)(=O)c1cccc(NC(=O)c2ccc(NS(C)(=O)=O)cc2N2CCC3(CC2)CC3)c1
6. O=C(Nc1cccc(S(=O)(=O)N2CCCCC2)c1)c1cn[nH]c1-c1ccc(Cl)cc1

Reply:
[92, 1250, 140, 31600, 28, 520]
